- Experimental parameters: in ethanol, 293.15 K
Endpoint name: solubility (mole fraction)

*Q* Indicate its recorded solubility (mole fraction); the compound in question is NC(=O)c1ccc(N)cc1
*A* 0.00697

----------
- Experimental parameters: in isobutanol, 303.15 K
Endpoint name: solubility (mole fraction)
Give bare numbers.

*Q* Indicate its recorded solubility (mole fraction); the molecule in question is NC(=O)c1ccc(N)cc1
*A* 0.00309

----------
- Experimental parameters: in ethanol, 298.15 K
Endpoint name: solubility (mole fraction)
Give bare numbers.

*Q* Indicate its recorded solubility (mole fraction); the compound in question is NC(=O)c1ccc(N)cc1
*A* 0.00777

----------
- Experimental parameters: in acetone, 318.15 K
Endpoint name: solubility (mole fraction)
Answers are plain numbers.

*Q* Indicate its recorded solubility (mole fraction); the compound in question is NC(=O)c1ccc(N)cc1
*A* 0.0154

----------
- Experimental parameters: in n-butanol, 308.15 K
Endpoint name: solubility (mole fraction)
Answers are plain numbers.

*Q* Indicate its recorded solubility (mole fraction); the compound in question is NC(=O)c1ccc(N)cc1
*A* 0.00375

----------
- Experimental parameters: in acetone, 298.15 K
Endpoint name: solubility (mole fraction)

*Q* Indicate its recorded solubility (mole fraction); the molecule in question is NC(=O)c1ccc(N)cc1
*A* 0.00956

----------
- Experimental parameters: in n-propanol, 303.15 K
Endpoint name: solubility (mole fraction)
Answers are plain numbers.

*Q* Indicate its recorded solubility (mole fraction); the compound in question is NC(=O)c1ccc(N)cc1
*A* 0.00585

----------
- Experimental parameters: in n-butyl acetate, 293.15 K
Endpoint name: solubility (mole fraction)
Give bare numbers.

*Q* Indicate its recorded solubility (mole fraction); the compound in question is NC(=O)c1ccc(N)cc1
*A* 0.000974

----------
- Experimental parameters: in methanol, 308.15 K
Endpoint name: solubility (mole fraction)
Answers are plain numbers.

*Q* Indicate its recorded solubility (mole fraction); the molecule in question is NC(=O)c1ccc(N)cc1
*A* 0.0214

----------
- Experimental parameters: in ethanol, 323.15 K
Endpoint name: solubility (mole fraction)
Numbers only.

*Q* Indicate its recorded solubility (mole fraction); the compound in question is NC(=O)c1ccc(N)cc1
*A* 0.016

----------
- Experimental parameters: in methanol, 323.15 K
Endpoint name: solubility (mole fraction)
One number for each entry.

*Q* Indicate its recorded solubility (mole fraction); the compound in question is NC(=O)c1ccc(N)cc1
*A* 0.0328

----------
- Experimental parameters: in ethanol, 288.15 K
Endpoint name: solubility (mole fraction)
Answers are plain numbers.

*Q* Indicate its recorded solubility (mole fraction); the compound in question is NC(=O)c1ccc(N)cc1
*A* 0.00649

----------
- Experimental parameters: in methyl acetate, 318.15 K
Endpoint name: solubility (mole fraction)

*Q* Indicate its recorded solubility (mole fraction); the compound in question is NC(=O)c1ccc(N)cc1
*A* 0.00311

----------
- Experimental parameters: in ethanol, 313.15 K
Endpoint name: solubility (mole fraction)
Give bare numbers.

*Q* Indicate its recorded solubility (mole fraction); the compound in question is NC(=O)c1ccc(N)cc1
*A* 0.0121

----------
- Experimental parameters: in isobutanol, 283.15 K
Endpoint name: solubility (mole fraction)
One number for each entry.

*Q* Indicate its recorded solubility (mole fraction); the compound in question is NC(=O)c1ccc(N)cc1
*A* 0.00239

----------
- Experimental parameters: in n-butanol, 283.15 K
Endpoint name: solubility (mole fraction)
Answers are plain numbers.

*Q* Indicate its recorded solubility (mole fraction); the molecule in question is NC(=O)c1ccc(N)cc1
*A* 0.00257

----------
- Experimental parameters: in n-butyl acetate, 283.15 K
Endpoint name: solubility (mole fraction)
Numbers only.

*Q* Indicate its recorded solubility (mole fraction); the molecule in question is NC(=O)c1ccc(N)cc1
*A* 0.000749

----------
- Experimental parameters: in methanol, 298.15 K
Endpoint name: solubility (mole fraction)
Answers are plain numbers.

*Q* Indicate its recorded solubility (mole fraction); the compound in question is NC(=O)c1ccc(N)cc1
*A* 0.0163

----------
- Experimental parameters: in water, 303.15 K
Endpoint name: solubility (mole fraction)

*Q* Indicate its recorded solubility (mole fraction); the molecule in question is NC(=O)c1ccc(N)cc1
*A* 0.00184

----------
- Experimental parameters: in acetonitrile, 323.15 K
Endpoint name: solubility (mole fraction)
One number for each entry.

*Q* Indicate its recorded solubility (mole fraction); the compound in question is NC(=O)c1ccc(N)cc1
*A* 0.00661

----------
- Experimental parameters: in methanol, 303.15 K
Endpoint name: solubility (mole fraction)
One number for each entry.

*Q* Indicate its recorded solubility (mole fraction); the compound in question is NC(=O)c1ccc(N)cc1
*A* 0.0188

----------
- Experimental parameters: in methanol, 288.15 K
Endpoint name: solubility (mole fraction)
Numbers only.

*Q* Indicate its recorded solubility (mole fraction); the compound in question is NC(=O)c1ccc(N)cc1
*A* 0.0132

----------
- Experimental parameters: in methyl acetate, 293.15 K
Endpoint name: solubility (mole fraction)
Answers are plain numbers.

*Q* Indicate its recorded solubility (mole fraction); the molecule in question is NC(=O)c1ccc(N)cc1
*A* 0.0017

----------
- Experimental parameters: in ethyl acetate, 303.15 K
Endpoint name: solubility (mole fraction)

*Q* Indicate its recorded solubility (mole fraction); the molecule in question is NC(=O)c1ccc(N)cc1
*A* 0.00103

----------
- Experimental parameters: in methyl acetate, 303.15 K
Endpoint name: solubility (mole fraction)
Answers are plain numbers.

*Q* Indicate its recorded solubility (mole fraction); the compound in question is NC(=O)c1ccc(N)cc1
*A* 0.00217

----------
- Experimental parameters: in water, 313.15 K
Endpoint name: solubility (mole fraction)
One number for each entry.

*Q* Indicate its recorded solubility (mole fraction); the molecule in question is NC(=O)c1ccc(N)cc1
*A* 0.00281

----------
- Experimental parameters: in acetone, 308.15 K
Endpoint name: solubility (mole fraction)
One number for each entry.

*Q* Indicate its recorded solubility (mole fraction); the compound in question is NC(=O)c1ccc(N)cc1
*A* 0.0118

----------
- Experimental parameters: in n-butanol, 313.15 K
Endpoint name: solubility (mole fraction)

*Q* Indicate its recorded solubility (mole fraction); the compound in question is NC(=O)c1ccc(N)cc1
*A* 0.00421

----------
- Experimental parameters: in methyl acetate, 313.15 K
Endpoint name: solubility (mole fraction)
Give bare numbers.

*Q* Indicate its recorded solubility (mole fraction); the molecule in question is NC(=O)c1ccc(N)cc1
*A* 0.00274

----------
- Experimental parameters: in isopropanol, 283.15 K
Endpoint name: solubility (mole fraction)
Numbers only.

*Q* Indicate its recorded solubility (mole fraction); the compound in question is NC(=O)c1ccc(N)cc1
*A* 0.00331

----------
- Experimental parameters: in water, 308.15 K
Endpoint name: solubility (mole fraction)
Numbers only.

*Q* Indicate its recorded solubility (mole fraction); the molecule in question is NC(=O)c1ccc(N)cc1
*A* 0.00229

----------
- Experimental parameters: in ethyl acetate, 323.15 K
Endpoint name: solubility (mole fraction)
Give bare numbers.

*Q* Indicate its recorded solubility (mole fraction); the compound in question is NC(=O)c1ccc(N)cc1
*A* 0.00257

----------
- Experimental parameters: in n-propanol, 293.15 K
Endpoint name: solubility (mole fraction)
Answers are plain numbers.

*Q* Indicate its recorded solubility (mole fraction); the compound in question is NC(=O)c1ccc(N)cc1
*A* 0.0044

----------
- Experimental parameters: in isopropanol, 308.15 K
Endpoint name: solubility (mole fraction)

*Q* Indicate its recorded solubility (mole fraction); the compound in question is NC(=O)c1ccc(N)cc1
*A* 0.00577

----------
- Experimental parameters: in water, 288.15 K
Endpoint name: solubility (mole fraction)
Numbers only.

*Q* Indicate its recorded solubility (mole fraction); the compound in question is NC(=O)c1ccc(N)cc1
*A* 0.000983

----------
- Experimental parameters: in ethyl acetate, 318.15 K
Endpoint name: solubility (mole fraction)
Answers are plain numbers.

*Q* Indicate its recorded solubility (mole fraction); the compound in question is NC(=O)c1ccc(N)cc1
*A* 0.00207

----------
- Experimental parameters: in n-propanol, 313.15 K
Endpoint name: solubility (mole fraction)
One number for each entry.

*Q* Indicate its recorded solubility (mole fraction); the molecule in question is NC(=O)c1ccc(N)cc1
*A* 0.00839

----------
- Experimental parameters: in methanol, 313.15 K
Endpoint name: solubility (mole fraction)
Numbers only.

*Q* Indicate its recorded solubility (mole fraction); the molecule in question is NC(=O)c1ccc(N)cc1
*A* 0.0246

----------
- Experimental parameters: in acetonitrile, 293.15 K
Endpoint name: solubility (mole fraction)
Numbers only.

*Q* Indicate its recorded solubility (mole fraction); the compound in question is NC(=O)c1ccc(N)cc1
*A* 0.00225

----------
- Experimental parameters: in ethyl acetate, 293.15 K
Endpoint name: solubility (mole fraction)
Numbers only.

*Q* Indicate its recorded solubility (mole fraction); the compound in question is NC(=O)c1ccc(N)cc1
*A* 0.000697

----------
- Experimental parameters: in isopropanol, 313.15 K
Endpoint name: solubility (mole fraction)
One number for each entry.

*Q* Indicate its recorded solubility (mole fraction); the molecule in question is NC(=O)c1ccc(N)cc1
*A* 0.00677
